- target: BMP2K (Homo sapiens)
- Sequence (Q9NSY1 whole entry): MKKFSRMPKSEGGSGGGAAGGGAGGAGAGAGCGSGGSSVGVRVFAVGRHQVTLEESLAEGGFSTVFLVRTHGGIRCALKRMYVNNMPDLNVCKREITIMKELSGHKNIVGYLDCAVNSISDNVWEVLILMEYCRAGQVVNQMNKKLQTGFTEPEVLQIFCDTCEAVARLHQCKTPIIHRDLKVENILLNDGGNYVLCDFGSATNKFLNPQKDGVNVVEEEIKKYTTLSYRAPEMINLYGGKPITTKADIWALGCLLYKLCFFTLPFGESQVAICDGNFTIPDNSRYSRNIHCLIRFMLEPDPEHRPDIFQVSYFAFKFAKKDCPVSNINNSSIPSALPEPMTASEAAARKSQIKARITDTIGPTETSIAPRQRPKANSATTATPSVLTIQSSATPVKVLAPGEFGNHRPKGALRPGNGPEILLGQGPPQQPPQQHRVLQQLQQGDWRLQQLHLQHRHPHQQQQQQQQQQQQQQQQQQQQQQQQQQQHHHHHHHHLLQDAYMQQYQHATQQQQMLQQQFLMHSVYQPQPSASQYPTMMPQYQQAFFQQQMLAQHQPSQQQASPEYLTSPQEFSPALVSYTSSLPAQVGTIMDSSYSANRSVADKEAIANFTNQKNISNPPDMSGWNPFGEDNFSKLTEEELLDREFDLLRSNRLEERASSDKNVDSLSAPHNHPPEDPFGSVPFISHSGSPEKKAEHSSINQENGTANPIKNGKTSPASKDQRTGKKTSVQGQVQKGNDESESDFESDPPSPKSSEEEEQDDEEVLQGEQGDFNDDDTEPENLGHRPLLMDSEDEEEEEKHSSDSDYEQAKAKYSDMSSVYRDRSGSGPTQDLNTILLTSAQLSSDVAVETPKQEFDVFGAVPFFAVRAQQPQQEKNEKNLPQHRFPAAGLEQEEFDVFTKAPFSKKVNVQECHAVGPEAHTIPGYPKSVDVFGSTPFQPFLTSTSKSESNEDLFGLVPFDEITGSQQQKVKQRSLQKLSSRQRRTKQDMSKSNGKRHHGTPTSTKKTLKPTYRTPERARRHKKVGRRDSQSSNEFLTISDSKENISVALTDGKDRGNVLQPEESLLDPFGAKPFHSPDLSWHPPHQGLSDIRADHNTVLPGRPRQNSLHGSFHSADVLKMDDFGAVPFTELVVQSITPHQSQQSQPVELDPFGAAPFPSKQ
- test-protocol: biochemical
As shown below, each of these compounds has a reported Ki value.
readout-kind: Ki (µM)

entry-smiles: COc1cccc(Nc2ccnc3ccc(S(C)(=O)=O)cc23)c1
unit-of-measure: µM
readout-qualifier: =
readout-value: 19
//
entry-smiles: O=[N+]([O-])c1cccc(Nc2ccnc3ccc(C(F)(F)F)cc23)c1
unit-of-measure: µM
readout-qualifier: >
readout-value: 100
//
entry-smiles: COc1cccc(Nc2ccnc3ccc(OC)cc23)c1
unit-of-measure: µM
readout-qualifier: =
readout-value: 26
//
entry-smiles: OCc1cccc(Nc2ccnc3ccc(C(F)(F)F)cc23)c1
unit-of-measure: µM
readout-qualifier: =
readout-value: 15
//
entry-smiles: CN(C)c1cccc(Nc2ccnc3ccc(C(F)(F)F)cc23)c1
unit-of-measure: µM
readout-qualifier: >
readout-value: 100
//
entry-smiles: Oc1cccc(Nc2ccnc3ccccc23)c1
unit-of-measure: µM
readout-qualifier: =
readout-value: 30
//
entry-smiles: COc1cccc(Nc2ccnc3ccccc23)c1
unit-of-measure: µM
readout-qualifier: >
readout-value: 100
//
entry-smiles: CN(C)c1cccc(Nc2ccnc3ccccc23)c1
unit-of-measure: µM
readout-qualifier: >
readout-value: 100
//
entry-smiles: OCc1ccccc1Nc1ccnc2ccc(C(F)(F)F)cc12
unit-of-measure: µM
readout-qualifier: =
readout-value: 16
//
entry-smiles: Oc1cccc(Nc2ccnc3ccc(C(F)(F)F)cc23)c1
unit-of-measure: µM
readout-qualifier: =
readout-value: 5.8
//
entry-smiles: COc1ccc2nccc(Nc3cccc(O)c3)c2c1
unit-of-measure: µM
readout-qualifier: =
readout-value: 7.3
